System: E. coli TESEC Alr+ wild-type control
experimentSummary: growth (OD600 after 10 h); higher = more growth (less inhibition)
assayConditions: compound 0.1 mM; raw OD600 reference: median of DMSO wells 0.49, cell-free background 0.052
Structures can show the parent of a compound that is named as a salt.
Readings of growth for the listed compounds
No unit in the answer, only the number.

Check out these entries, answers already filled in.
>>> recordednumber("CC1=C(/C=C/C(C)=C/C=C/C(C)=C/C(=O)O)C(C)(C)CCC1")
0.476
>>> recordednumber("COc1ccc2c(c1)c(CC(=O)OCC(=O)O)c(C)n2C(=O)c1ccc(Cl)cc1")
0.363
>>> recordednumber("CN(CCOc1ccc(CC2SC(=O)NC2=O)cc1)c1ccccn1 (stereo not given) [Rosiglitazone Hydrochloride]")
0.327
>>> recordednumber("COc1ccc2c(c1)C(=O)N(CCc1ccc(S(=O)(=O)NC(=O)NC3CCCCC3)cc1)C(=O)C2(C)C")
0.0675
>>> recordednumber("C=Cc1c(C)c2cc3nc(cc4[nH]c(cc5nc(cc1[nH]2)C(C)=C5CCC(=O)O)c(CCC(=O)OC)c4C)[C@@]1(C)C3=CC=C(C(=O)OC)C1C(=O)OC.C=Cc1c(C)c2cc3nc(cc4[nH]c(cc5nc(cc1[nH]2)C(C)=C5CCC(=O)OC)c(CCC(=O)O)c4C)[C@@]1(C)C3=CC=C(C(=O)OC)C1C(=O)OC (stereo not given in full)")
0.568

Enquiry: What value of growth has been recorded for this entry: CC(=O)N(CC(O)CN(C(C)=O)c1c(I)c(C(=O)NCC(O)CO)c(I)c(C(=O)NCC(O)CO)c1I)c1c(I)c(C(=O)NCC(O)CO)c(I)c(C(=O)NCC(O)CO)c1I (stereo not given)
Return: 0.537

Enquiry: Recorded growth for O=S(=O)(O)c1cc(O)ccc1O [Ethamsylate] , please?
Return: 0.525

Enquiry: Looking for the measured growth of NC[C@H]1O[C@H](O[C@H]2[C@H](O[C@@H]3O[C@H](CO)[C@@H](O)[C@H]3O)[C@@H](O)[C@H](N)C[C@@H]2N)[C@H](N)[C@@H](O)[C@@H]1O [Ribostamycin sulfate salt] , can you help?
Return: 0.549

* * *

# Lookup of reported growth keyed by entry
Tested on: E. coli TESEC Mtb Alr
experimentSummary: growth (OD600 after 10 h); higher = more growth (less inhibition)
assayConditions: arabinose 10000 nM; compound 0.1 mM; raw OD600 reference: median of DMSO wells 0.264, cell-free background 0.041
Structures can show the parent of a compound that is named as a salt.
Please reply with the value in numeric form only.

Study these solved cases before continuing.
>>> recordednumber("CCCCNC(=O)NS(=O)(=O)c1ccc(C)cc1 [Tolbutamide]")
0.243
>>> recordednumber("CCCCc1oc2ccccc2c1C(=O)c1cc(I)c(OCCN(CC)CC)c(I)c1 [Amiodarone hydrochloride]")
0.324
>>> recordednumber("C[C@H](CCC(=O)O)[C@H]1CC[C@H]2[C@@H]3[C@H](O)C[C@@H]4C[C@H](O)CC[C@]4(C)[C@H]3CC[C@]12C")
0.221
>>> recordednumber("O=c1[nH]cc(F)c(=O)[nH]1")
0.148
>>> recordednumber("CN(C)CC/C=C1\\c2ccccc2CSc2ccccc21 [Dosulepin hydrochloride]")
0.309
>>> recordednumber("Cn1c(=O)c2c(ncn2CCO)n(C)c1=O")
0.276

Enquiry: Can you share its growth? I mean this molecule: `Cc1ccc(C(=O)c2cc(O)c(O)c([N+](=O)[O-])c2)cc1`
Return: 0.0432

Enquiry: What value of measured growth is listed for CC(C)(C)NC[C@H](O)COc1ccccc1C1CCCC1 [Penbutolol sulfate] ?
Return: 0.321

Enquiry: Sample `C#Cc1cccc(Nc2ncnc3cc(OCCOC)c(OCCOC)cc23)c1` — what was its growth?
Return: 0.236

Where do these numbers come from? They come from the supplement of paper PMC9262897.
